molecular target: CYP2C9 (Homo sapiens, UniProt P11712); construct: from tissue; host or cells: pooled human liver microsomes; experiment: CYP inhibition test, pooled human liver microsomes; format: in vitro ADME; conditions: methyl-hydroxylation of tolbutamide
Sequence (P11712 whole entry): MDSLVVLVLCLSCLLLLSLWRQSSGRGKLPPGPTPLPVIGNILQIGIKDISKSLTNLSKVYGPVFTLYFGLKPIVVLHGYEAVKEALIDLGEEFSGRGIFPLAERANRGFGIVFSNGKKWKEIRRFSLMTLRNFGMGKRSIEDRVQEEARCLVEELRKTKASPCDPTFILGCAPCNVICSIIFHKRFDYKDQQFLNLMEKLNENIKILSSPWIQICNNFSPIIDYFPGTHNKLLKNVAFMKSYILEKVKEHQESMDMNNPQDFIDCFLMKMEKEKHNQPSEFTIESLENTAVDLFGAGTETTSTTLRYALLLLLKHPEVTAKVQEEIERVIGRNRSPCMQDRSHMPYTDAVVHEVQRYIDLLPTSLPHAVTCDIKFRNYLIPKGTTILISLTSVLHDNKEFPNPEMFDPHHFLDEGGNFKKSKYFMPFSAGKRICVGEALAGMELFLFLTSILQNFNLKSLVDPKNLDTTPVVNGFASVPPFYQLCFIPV
measure: IC50

Notebook: "COc1cc(NS(=O)(=O)c2ccccc2CO)ccc1-n1cnc(C)c1" , IC50 read as > 10 µM

---

Biological target: hERG channel (IKr) (Homo sapiens, UniProt Q12809)
Construct: expressed in transfected cells; host or cells: HEK293
Sequence (Q12809 whole entry): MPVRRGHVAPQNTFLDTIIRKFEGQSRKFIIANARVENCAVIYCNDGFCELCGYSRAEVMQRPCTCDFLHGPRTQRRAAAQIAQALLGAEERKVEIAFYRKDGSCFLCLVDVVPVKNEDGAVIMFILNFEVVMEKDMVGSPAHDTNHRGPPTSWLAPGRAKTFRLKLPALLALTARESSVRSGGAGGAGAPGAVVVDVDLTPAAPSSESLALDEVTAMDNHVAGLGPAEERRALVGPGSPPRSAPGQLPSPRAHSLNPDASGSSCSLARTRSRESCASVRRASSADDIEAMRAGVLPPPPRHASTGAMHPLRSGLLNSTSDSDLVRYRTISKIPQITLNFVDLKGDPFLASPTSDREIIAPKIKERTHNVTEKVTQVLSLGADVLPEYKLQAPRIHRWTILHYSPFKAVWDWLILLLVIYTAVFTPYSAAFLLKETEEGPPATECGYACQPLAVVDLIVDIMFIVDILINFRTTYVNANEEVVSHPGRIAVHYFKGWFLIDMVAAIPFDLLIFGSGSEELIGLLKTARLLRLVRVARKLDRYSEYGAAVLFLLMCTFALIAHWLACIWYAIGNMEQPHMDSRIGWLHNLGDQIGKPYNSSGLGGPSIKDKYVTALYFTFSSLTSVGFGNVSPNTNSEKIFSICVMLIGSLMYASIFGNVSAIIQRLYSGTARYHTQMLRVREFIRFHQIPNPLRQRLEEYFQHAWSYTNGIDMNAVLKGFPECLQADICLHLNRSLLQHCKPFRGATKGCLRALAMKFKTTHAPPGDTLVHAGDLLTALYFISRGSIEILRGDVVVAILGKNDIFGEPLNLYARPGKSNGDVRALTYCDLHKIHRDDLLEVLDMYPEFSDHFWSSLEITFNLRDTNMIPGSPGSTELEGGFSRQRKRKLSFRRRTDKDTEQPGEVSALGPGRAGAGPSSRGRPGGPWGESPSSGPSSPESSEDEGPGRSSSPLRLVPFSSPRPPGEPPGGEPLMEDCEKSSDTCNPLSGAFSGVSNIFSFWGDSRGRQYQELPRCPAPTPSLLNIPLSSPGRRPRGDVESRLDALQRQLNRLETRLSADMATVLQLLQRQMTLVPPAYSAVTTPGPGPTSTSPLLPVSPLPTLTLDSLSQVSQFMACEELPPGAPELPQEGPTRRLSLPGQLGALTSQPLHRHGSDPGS
Experiment: hERG test (whole-cell patch clamp, IKr)
Assay type: cell-based
Conditions: HEK293 cells that express hERG, pH 7.4, HEK293 cell expressing hERG, room temperature, concentration not given, read-out: inhibitory percentage relative to the maximum tail current (IKr)
From the text: For the purpose of risk assessment for QT prolongation on an electrocardiogram, the action on delayed rectifier K+ current (IKr) which plays an important role on a process of ventricular repolarization is studied using a HEK293 cell with a human ether-a-go-go related gene (hERG) channel expressed therein. […]
measure: inhibition at 10 min (%)
Give your result in % as a bare value.

COc1cc(NS(=O)(=O)c2ccccc2F)ccc1-n1cnc(C)c1	6.4
COc1cc(NS(=O)(=O)c2ccc(Cl)nc2)ccc1-n1cnc(C)c1	8.5

Next molecule, inhibition at 10 min to be filled in.
With hERG channel (IKr) (Homo sapiens, UniProt Q12809) as the test system, "COc1cc(NS(=O)(=O)c2ccccc2[N+](=O)[O-])ccc1-n1cnc(C)c1" showed inhibition at 10 min of 1.1
